Test system: K. pneumoniae GN_106, PmxR
experimental-parameters: GN 106, PmxR
Positions of bridges follow the written chain, without caps; N, C: chain ends. Non-standard residues stand in square brackets, D forms with d. Residues, ends and D or L forms follow the SMILES beside them. *: point of attachment. Decanoyl(3R-OH) = CCCCCCC[C@@H](O)CC(=O)*; dIgl = N[C@@H](C(=O)O)C1Cc2ccccc2C1; dDab = NCC[C@@H](N)C(=O)O; Dab = NCC[C@H](N)C(=O)O; Dap = NC[C@H](N)C(=O)O
experimental-readout: MIC K. pneumoniae GN_106, PmxR (µg/mL)
One number for each entry, in µg/mL.

compound	scale-unit	experimental-value
CCCCCCC[C@@H](O)CC(=O)N[C@@H](CCN)C(=O)N[C@H]1CCNC(=O)[C@H](CC(C)C)NC(=O)[C@H](CN)NC(=O)[C@H](CCN)NC(=O)[C@H](CC(C)C)NC(=O)[C@@H](Cc2ccccc2)NC(=O)[C@H](CCN)NC1=O [compound 5564] ({Decanoyl(3R-OH)}-[Dab][Dab][Dab][dF]L[Dab][Dap]L; lactam 2-C)	µg/mL	8

The record that follows has no MIC K. pneumoniae GN_106, PmxR shown yet.
Task: # value lookup — system K. pneumoniae GN_106, PmxR, readout MIC K. pneumoniae GN_106, PmxR, item CCCCCCC[C@@H](O)CC(=O)N[C@H](CCN)C(=O)N[C@H]1CCNC(=O)[C@H](Cc2c[nH]c3ccccc23)NC(=O)[C@H](CCN)NC(=O)[C@H](CCN)NC(=O)[C@H](CC(C)C)NC(=O)[C@@H](C2Cc3ccccc3C2)NC(=O)[C@H](CCN)NC1=O [compound 8826] ({Decanoyl(3R-OH)}-[dDab][Dab][Dab][dIgl]L[Dab][Dab]W; lactam 2-C)
Result: 8

====

Tested on: E. coli ATCC 25922
experimental-parameters: ATCC 25922
Starred links: 1 amine or outer side, 2 acyl side, 3 side chain; linkers in the order of their positions; H or OH if unused. Positions of bridges follow the written chain, without caps; N, C: chain ends. Non-standard residues stand in square brackets, D forms with d. Residues, ends and D or L forms follow the SMILES beside them. *: point of attachment. Decanoyl(3R-OH) = CCCCCCC[C@@H](O)CC(=O)*; Igl = N[C@H](C(=O)O)C1Cc2ccccc2C1; 3Pal = N[C@@H](Cc1cccnc1)C(=O)O; azaDab = NCCN(N[*:1])C(=O)[*:2]; dDab = NCC[C@@H](N)C(=O)O; Octanoyl = CCCCCCCC(=O)*; Dab = NCC[C@H](N)C(=O)O; Pentanoyl = CCCCC(=O)*
experimental-readout: MIC E. coli ATCC 25922 (µg/mL)
Give bare numbers, in µg/mL.

A selection of reference data follows.
compound	MIC E. coli ATCC 25922 [µg/mL]
CCCCCCC[C@@H](O)CC(=O)NN(CCN)C(=O)N[C@H]1CCNC(=O)[C@H](CC(C)C)NC(=O)[C@H](CCN)NC(=O)[C@H](CCN)NC(=O)[C@H](CC(C)C)NC(=O)[C@@H](Cc2ccccc2)NC(=O)[C@H](CCN)NC1=O [compound 8639] ({Decanoyl(3R-OH)}-[azaDab][Dab][Dab][dF]L[Dab][Dab]L; lactam 2-C)	2
CCCCCCC[C@@H](O)CC(=O)N[C@H](CCN)C(=O)N[C@H]1CCNC(=O)[C@H](Cc2cccnc2)NC(=O)[C@H](CCN)NC(=O)[C@H](CCN)NC(=O)[C@H](CC(C)C)NC(=O)[C@@H](Cc2ccccc2)NC(=O)[C@H](CCN)NC1=O [compound 8907] ({Decanoyl(3R-OH)}-[dDab][Dab][Dab][dF]L[Dab][Dab][3Pal]; lactam 2-C)	4

// each listed compound needs a value for MIC E. coli ATCC 25922
1. CCCCCCC[C@@H](O)CC(=O)N[C@H](CCN)C(=O)N[C@H]1CCNC(=O)[C@H](Cc2c[nH]c3ccccc23)NC(=O)[C@H](CCN)NC(=O)[C@H](CCN)NC(=O)[C@H](CC(C)C)NC(=O)[C@@H](Cc2ccccc2)NC(=O)[C@H](CCN)NC1=O [compound 6509] ({Decanoyl(3R-OH)}-[dDab][Dab][Dab][dF]L[Dab][Dab]W; lactam 2-C)
2. CCCCCCC[C@@H](O)CC(=O)N[C@H](CCN)C(=O)N[C@H]1CCNC(=O)[C@H](Cc2c[nH]c3ccccc23)NC(=O)[C@H](CCN)NC(=O)[C@H](CCN)NC(=O)[C@H](C2Cc3ccccc3C2)NC(=O)[C@@H](Cc2ccccc2)NC(=O)[C@H](CCN)NC1=O [compound 8103] ({Decanoyl(3R-OH)}-[dDab][Dab][Dab][dF][Igl][Dab][Dab]W; lactam 2-C)
3. CCCCC(=O)N[C@H](CCN)C(=O)N[C@H]1CCNC(=O)[C@H](CC(C)C)NC(=O)[C@H](CCN)NC(=O)[C@H](CCN)NC(=O)[C@H](CC(C)C)NC(=O)[C@@H](Cc2ccccc2)NC(=O)[C@H](CCN)NC1=O [compound 919] (Pentanoyl-[dDab][Dab][Dab][dF]L[Dab][Dab]L; lactam 2-C)
4. CCCCCCC[C@@H](O)CC(=O)N[C@H](CCN)C(=O)N[C@H]1CCNC(=O)[C@H](CC(C)C)NC(=O)[C@H](CCNC(=O)[C@@H](N)CCCNC(=N)N)NC(=O)[C@H](CCN)NC(=O)[C@H](CC(C)C)NC(=O)[C@@H](Cc2ccccc2)NC(=O)[C@H](CCN)NC1=O [compound 6653] ({Decanoyl(3R-OH)}-[dDab][Dab][Dab][dF]L[Dab][Dab](Arg)L; lactam 2-C)
5. CCCCCCCC(=O)N[C@H](CCN)C(=O)N[C@H]1CCNC(=O)[C@H](Cc2c[nH]c3ccccc23)NC(=O)[C@H](CCN)NC(=O)[C@H](CCN)NC(=O)[C@H](C2Cc3ccccc3C2)NC(=O)[C@@H](Cc2ccccc2)NC(=O)[C@H](CCN)NC1=O [compound 8898] (Octanoyl-[dDab][Dab][Dab][dF][Igl][Dab][Dab]W; lactam 2-C)

Result:
[4, 2, 32, 16, 4]
